# protocolSummary: Trypanosoma cruzi growth suppression in host cells – NIH3T3 host cells, beta-gal luminescence, confirmation (AID 2044);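 further: intracellular parasites grown in NIH/3T3 mouse fibroblasts as host cells; luminescent beta-galactosidase reporter signal from transgenic T. cruzi replicating inside host cells; inhibitors lower the luminescence signal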
# Format: functional, cell-based
Activity calls are given as the source filed them.
Below, each of the compounds is paired with its reported EC50 value.

Query: I have this compound here, O=C(NCC1CCCO1)c1ccc([N+](=O)[O-])s1 (configuration not stated) , and I need its recorded EC50.
Reply: 728 nM (active)

Query: I have this compound here, `Cc1sc2ncnc(N3CCC(C(=O)N(C)CC(=O)Nc4ccc(Cl)c(C(F)(F)F)c4)CC3)c2c1C` , and I need its recorded EC50.
Reply: 2730 nM (active)

* * *

# assayedTarget: RNA-binding protein pos-1 (Caenorhabditis elegans)
# Sequence (G5EF15 whole entry, the tested form may be a part): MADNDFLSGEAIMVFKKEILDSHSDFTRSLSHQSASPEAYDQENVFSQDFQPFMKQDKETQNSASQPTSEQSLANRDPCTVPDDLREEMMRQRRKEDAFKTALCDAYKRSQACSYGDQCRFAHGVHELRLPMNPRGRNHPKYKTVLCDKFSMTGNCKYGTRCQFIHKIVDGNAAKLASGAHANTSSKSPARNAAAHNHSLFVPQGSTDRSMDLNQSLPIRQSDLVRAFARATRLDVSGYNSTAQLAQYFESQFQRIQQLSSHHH
# protocolSummary: disruptors of C. elegans POS-1 RNA interaction – biochemical, fluorescence polarization, dose response (AID 1964);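 further: purified POS-1 fused to maltose binding protein made in E. coli; potency of compounds blocking POS-1 binding to fluorescent RNA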
Active and inactive are the calls of the source.
endpoint: EC50

> print(dat)
                                   molecule  endpoint    recordedmeasurement
1  Cc1ccc(NC(=O)CSc2nnc(N)s2)cc1S(=O)(=O)N1CCOCC1      EC50  > 300 µM (not active)
2  COc1cc(C(c2c(C)[nH][nH]c2=O)c2c(C)[nH][nH]c2=O)cc([N+](=O)[O-])c1O      EC50       7.63 µM (active)
3  CCOC(=O)C1CCN(C(=O)CCC(=O)NNc2nc3ccccc3c3nc(C)nn23)CC1      EC50       53.9 µM (active)

Query: I have this molecule here, `Cc1c(N)cc(N)cc1C(=O)O` , and I need its recorded EC50.
Reply: > 300 µM (not active)

Query: I have this molecule here, COc1ccc(C2=CC3=C(Br)C(=O)C(C)(OC(=O)c4cccs4)C(=O)C3=CO2)cc1 (stereo not given) , and I need its recorded EC50.
Reply: 32.8 µM (active)

* * *

# assayedTarget: Paired box protein Pax-8 (Homo sapiens)
# Sequence (Q06710 whole entry): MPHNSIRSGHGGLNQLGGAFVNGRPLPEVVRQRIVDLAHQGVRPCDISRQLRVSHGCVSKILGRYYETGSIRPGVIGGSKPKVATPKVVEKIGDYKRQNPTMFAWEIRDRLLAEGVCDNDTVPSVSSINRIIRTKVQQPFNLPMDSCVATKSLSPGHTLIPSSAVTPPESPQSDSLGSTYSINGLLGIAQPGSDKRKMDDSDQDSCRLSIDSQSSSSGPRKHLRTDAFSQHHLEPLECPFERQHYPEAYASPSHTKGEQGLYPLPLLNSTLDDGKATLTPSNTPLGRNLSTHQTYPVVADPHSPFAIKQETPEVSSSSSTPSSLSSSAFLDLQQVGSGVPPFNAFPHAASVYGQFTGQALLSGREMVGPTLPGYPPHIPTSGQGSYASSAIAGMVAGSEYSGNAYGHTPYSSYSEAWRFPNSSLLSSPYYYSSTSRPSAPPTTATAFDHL
# protocolSummary: PAX8 transcriptional activity inhibition in RMG-I – RMG-I cells, luciferase, cherry-pick, dose response (AID 687027);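 further: luciferase reporter driven by Pax8 target thyroperoxidase promoter measured by SteadyGlo luminescence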
# Format: functional, cell-based
Active and inactive are the calls of the source.
endpoint: AC50

For orientation, consider the following solved cases.
> print(dat)
                                   compound  recordedmeasurement
1  NC(=O)c1ccsc1NC(=O)c1ccc([N+](=O)[O-])o1      3.8 µM (active)
2  CCOC(=O)/C=C/C(=O)Nc1cc(S(=O)(=O)Nc2ccc(OC)cc2)ccc1N1CCOCC1     5.42 µM (active)
3  CC(C)=CCNc1ncnc2c1c(C#N)cn2C1OC(CO)C(O)C1O (stereo unspecified)     3.79 µM (active)
4  Cc1ccc(S(=O)(=O)Nc2ccc3c(c2)C(=O)N([C@@H](C)CO)C[C@H](C)[C@@H](CN(C)C(=O)Nc2cccc4ccccc24)OCCCC[C@@H](C)O3)cc1     4.15 µM (active)
5  C[C@@H]1CN([C@H](C)CO)C(=O)c2cc(NC(=O)Nc3ccc(C(F)(F)F)cc3)ccc2O[C@@H](C)CCCCO[C@H]1CN(C)Cc1ccccc1     12.2 µM (active)
6  C[C@H]1CCCCO[C@H](CN(C)C(=O)Nc2ccc(C(F)(F)F)cc2)[C@@H](C)CN([C@@H](C)CO)C(=O)c2cc(NS(=O)(=O)c3ccccc3)ccc2O1      6.7 µM (active)

Query: I have this compound here, `COc1cc(/C=N/NS(=O)(=O)c2ccc(C)cc2)ccc1OCc1cccc(C(=O)O)c1` , and I need its recorded AC50.
Reply: 13 µM (active)

Query: I have this compound here, CCOc1ccccc1C1C2=C(O)OCC2=Nc2cc3c(cc21)OCO3 (stereo unspecified) , and I need its recorded AC50.
Reply: 2.15 µM (active)

Query: I have this compound here, `CCCC#Cc1ccc([C@@H]2[C@H](C#N)N(S(=O)(=O)c3cccc(F)c3)[C@H]2CO)cc1` , and I need its recorded AC50.
Reply: 5.57 µM (active)

Query: I have this compound here, `O=C(C(=O)N(Cc1ccccc1)Cc1ccccc1)c1c(-c2ccccc2)[nH]c2ccccc12` , and I need its recorded AC50.
Reply: 7.45 µM (active)

Query: I have this compound here, `Cn1nnnc1Sc1ncnc2scc(-c3cccc4c3sc3ccccc34)c12` , and I need its recorded AC50.
Reply: 3.89 µM (active)

Query: I have this compound here, `C[C@@H]1CN([C@H](C)CO)C(=O)c2cc(NC(=O)Nc3ccc(C(F)(F)F)cc3)ccc2O[C@@H](C)CCCCO[C@@H]1CN(C)Cc1ccncc1` , and I need its recorded AC50.
Reply: 4.21 µM (active)

Query: I have this compound here, CCS(=O)(=O)N1Cc2ccccc2CC1C(=O)Nc1nnc(SCc2c(Cl)cccc2Cl)s1 (stereo unspecified) , and I need its recorded AC50.
Reply: 34.9 µM (active)

Query: I have this compound here, `Cc1ccc(OC(=O)N(C)C[C@@H]2OCc3ccccc3-c3c(n(C)c4ccccc34)C(=O)N([C@@H](C)CO)C[C@H]2C)cc1` , and I need its recorded AC50.
Reply: 4.78 µM (active)

Query: I have this compound here, `CC(C)CC#Cc1ccc2c(c1)O[C@@H](CN(C)S(=O)(=O)c1ccc(F)cc1)[C@H](C)CN([C@@H](C)CO)S2(=O)=O` , and I need its recorded AC50.
Reply: 9.45 µM (active)

Query: I have this compound here, `Cc1ccc(S(=O)(=O)Nc2ccc3c(c2)C(=O)N([C@@H](C)CO)C[C@H](C)[C@@H](CN(C)Cc2ccc(C(F)(F)F)cc2)OCCCC[C@H](C)O3)cc1` , and I need its recorded AC50.
Reply: 7.48 µM (active)

* * *

# assayedTarget: Phospholipase A2 (Homo sapiens, UniProt P04054);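 further: confirmatory dose-response counterscreen on phospholipase A2, testing hits that came from an ultra-high-throughput screen for ATG4B inhibitors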
# Sequence (P04054 whole entry): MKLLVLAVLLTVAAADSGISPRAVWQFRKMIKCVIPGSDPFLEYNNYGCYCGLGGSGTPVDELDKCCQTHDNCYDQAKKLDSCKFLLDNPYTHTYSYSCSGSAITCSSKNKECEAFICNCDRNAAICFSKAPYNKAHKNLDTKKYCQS
# Type: functional
Calls of active or inactive are those of the source.
Please reply with one of these outcomes: 1 (yes) for active, 0 (no) for inactive

Query: // outcome(item) with item = c1ccc(-c2ccc(C(c3ccccc3)n3ccnc3)cc2)cc1 (configuration not stated)
Reply: 1 (yes)

Query: // outcome(item) with item = `COC1=CC(=O)c2c(ccc3ncnc(N)c23)C1=O`
Reply: 0 (no)

Query: // outcome(item) with item = `CN(C)Cc1ccc(F)cc1Sc1cc(Cl)ccc1Cl`
Reply: 1 (yes)

Query: // outcome(item) with item = `Cc1ccc(C(=O)O)cc1/N=C/c1cc(Br)cc(Br)c1O`
Reply: 1 (yes)

Query: // outcome(item) with item = `COc1cc(NS(=O)(=O)c2ccc(NC(=S)NC(=O)/C=C/c3ccco3)cc2)ncn1`
Reply: 0 (no)

Query: // outcome(item) with item = `NC(=O)CSc1nc2cc([N+](=O)[O-])ccc2[nH]1`
Reply: 1 (yes)

Query: // outcome(item) with item = CCC1=NN(C(=O)c2cccc(Br)c2)C(O)(c2ccc(Br)cc2)C1 (configuration not stated)
Reply: 1 (yes)

* * *

# assayedTarget: Tyrosyl-DNA phosphodiesterase 2 (Homo sapiens)
# Sequence (O95551 whole entry): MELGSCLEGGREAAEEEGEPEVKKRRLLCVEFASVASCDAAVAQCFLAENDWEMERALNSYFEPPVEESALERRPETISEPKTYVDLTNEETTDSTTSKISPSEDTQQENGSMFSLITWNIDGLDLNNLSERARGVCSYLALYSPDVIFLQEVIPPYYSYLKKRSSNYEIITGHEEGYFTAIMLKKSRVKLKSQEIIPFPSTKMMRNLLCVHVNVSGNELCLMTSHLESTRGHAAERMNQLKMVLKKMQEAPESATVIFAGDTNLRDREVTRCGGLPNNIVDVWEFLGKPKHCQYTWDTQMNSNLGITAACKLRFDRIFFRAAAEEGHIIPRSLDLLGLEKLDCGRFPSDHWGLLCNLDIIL
# protocolSummary: potency against TDP2 phosphodiesterase activity – biochemical, epi absorbance, IC50, dose response (AID 743297)
Activity calls are given as the source filed them.
Please reply with one of these outcomes: 1 (yes) for active, 0 (no) for inactive

> print(dat)
                             moleculesmiles    group
1  O=C(O)CSc1cc(NS(=O)(=O)c2ccc(Br)cc2)c2ccccc2c1O   0 (no)
2        COC1=CC(=O)c2c(ccc3ncnc(N)c23)C1=O  1 (yes)
3  O=C(/C=C/c1ccc(O)cc1)c1ccc(/N=C2\C(=O)c3ccccc3C(O)=C2N2CCCCC2)cc1   0 (no)

Please find the next molecule below.
Query: // outcome(item) with item = `COc1cc(NS(=O)(=O)c2ccc(NC(=S)NC(=O)/C=C/c3ccco3)cc2)ncn1`
Reply: 0 (no)

* * *

# assayedTarget: UniProt:P55789
# Sequence (P55789 whole entry): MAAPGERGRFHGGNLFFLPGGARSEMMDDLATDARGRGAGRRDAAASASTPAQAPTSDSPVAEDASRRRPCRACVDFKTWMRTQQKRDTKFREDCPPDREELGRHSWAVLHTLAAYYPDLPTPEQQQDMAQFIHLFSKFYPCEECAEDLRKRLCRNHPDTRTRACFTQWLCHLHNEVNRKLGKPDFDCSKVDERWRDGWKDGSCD
# protocolSummary: ALR-catalysed DTT oxidation blockers – biochemical, H2O2 detection, luminescence, cherry-pick, dose response (AID 493248)
Active and inactive are the calls of the source.
endpoint: AC50

For orientation, consider the following solved cases.
> print(dat)
                                   compound  recordedmeasurement
1          Cc1ccn2c(NC3CCCCC3)c(C(C)C)nc2c1     2820 nM (active)
2  COc1ccc(C2SCC(=O)N2c2ccc(F)cc2)cc1 (stereo unspecified)       49 nM (active)
3      Cc1cccc(Oc2ccc3c(c2)cc(C(=O)O)n3C)c1      211 nM (active)
4                        NNC(=O)c1ccc(O)cc1     4280 nM (active)
5  O=C(CN1CCN(c2ccc(O)cc2)CC1)Nc1ccc(S(=O)(=O)N2CCCC2)cc1      699 nM (active)

Query: I have this compound here, `CN(C)c1cccc(C(=O)NC2CCCCCC2)c1` , and I need its recorded AC50.
Reply: 8080 nM (active)
